ASSAY: Systemic serum exposure after intramuscular injection
Assay type: in vivo, Balb/C mice
SETUP CONDITIONS: Balb/C, mouse, intramuscular, 100 μg, +Al—H (adsorbed)
QUANTITY MEASURED: Cmax

Solved entries (count: 4):
SMILES CODE | Cmax
CCCCCNc1nc(N)nc(C)c1Cc1ccc(OCCOCCC(F)(F)P(=O)(O)O)cc1OC | 1810 nM
COCCOc1cc2c(nc(O)n2Cc2ccc(CP(=O)(O)O)cc2)c(N)n1 | 4510 nM
CCCCCCCCCCCCOC[C@H](CSC[C@H](N)C(=O)NCCOCCOCCOCCP(=O)(O)O)NC(=O)CCCCCCCCCCC | 180 nM
CCOCc1nc2c(N)nc3ccccc3c2n1CCOCCOCCOCCP(=O)(O)O | 1720 nM

Recorded Cmax of CCCCCCCCCCCCOC[C@H](CSC[C@H](N)C(=O)NCCOCCOCCOCCP(=O)(O)O)OCCCCCCCCCCCC , please.
317 nM

Endpoint output: Cmax of COCCOc1nc(N)c2nc(O)n(Cc3ccc(CP(=O)(O)O)cc3)c2n1 . Value?
5520 nM

====

ASSAY: Systemic serum exposure after intramuscular injection
Type: in vivo, Balb/C mice
SETUP CONDITIONS: Balb/C, mouse, im, 100 ug, compound alone, 100 μg i.m., 24 hours
QUANTITY MEASURED: AUC (nM·h)
Hi! Could you send only the number? It should be in nM·h, unit omitted.

SMILES CODE | AUC / nM·h
CCOCc1nc2c(N)nc3ccccc3c2n1CCOCCOCCOCCP(=O)(O)O | 1390
CCCCCNc1nc(N)nc(C)c1Cc1ccc(OCCOCCC(F)(F)P(=O)(O)O)cc1OC | 2090
COCCOc1cc2c(nc(O)n2Cc2ccc(CP(=O)(O)O)cc2)c(N)n1 | 3570

Kindly consider the entry below.
Which measured AUC value corresponds to COCCOc1nc(N)c2nc(O)n(Cc3ccc(CP(=O)(O)O)cc3)c2n1 ?
7180

====

Parameter: pEC50. Scope: all listed entries.
TESTED TARGET: human TLR7 (Homo sapiens)
Sequence (Q9NYK1 27-1049): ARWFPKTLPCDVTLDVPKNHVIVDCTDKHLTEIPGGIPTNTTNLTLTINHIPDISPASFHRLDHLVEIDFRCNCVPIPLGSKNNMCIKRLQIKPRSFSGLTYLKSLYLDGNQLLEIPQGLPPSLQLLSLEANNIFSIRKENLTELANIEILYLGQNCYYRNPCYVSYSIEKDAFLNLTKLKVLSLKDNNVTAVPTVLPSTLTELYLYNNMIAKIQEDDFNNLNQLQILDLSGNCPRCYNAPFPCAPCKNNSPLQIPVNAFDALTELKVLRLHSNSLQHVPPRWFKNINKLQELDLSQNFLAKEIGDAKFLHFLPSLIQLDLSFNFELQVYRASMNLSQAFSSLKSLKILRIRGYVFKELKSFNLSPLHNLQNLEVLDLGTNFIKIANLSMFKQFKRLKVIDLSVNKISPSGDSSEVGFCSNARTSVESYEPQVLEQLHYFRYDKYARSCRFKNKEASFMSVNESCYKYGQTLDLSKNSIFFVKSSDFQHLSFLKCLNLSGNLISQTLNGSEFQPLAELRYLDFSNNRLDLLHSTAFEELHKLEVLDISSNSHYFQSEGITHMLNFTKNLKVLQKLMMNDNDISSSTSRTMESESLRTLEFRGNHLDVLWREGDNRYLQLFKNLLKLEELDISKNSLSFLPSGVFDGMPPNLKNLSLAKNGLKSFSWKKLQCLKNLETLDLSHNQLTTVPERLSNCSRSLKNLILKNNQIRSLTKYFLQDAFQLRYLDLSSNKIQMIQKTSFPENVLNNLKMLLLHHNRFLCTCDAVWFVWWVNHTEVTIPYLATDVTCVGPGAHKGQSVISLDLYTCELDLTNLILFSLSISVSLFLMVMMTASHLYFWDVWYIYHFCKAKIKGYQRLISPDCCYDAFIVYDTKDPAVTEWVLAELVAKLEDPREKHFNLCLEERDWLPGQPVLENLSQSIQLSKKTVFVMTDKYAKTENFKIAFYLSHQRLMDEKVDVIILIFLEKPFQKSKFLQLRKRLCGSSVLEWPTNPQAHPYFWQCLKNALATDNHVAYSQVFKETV
ASSAY: HEK293 human TLR7 NF-κB luciferase reporter assay
SETUP CONDITIONS: HEK293 cells
Description: The activity of this compound is assessed in an assay using HEK293 cells which are stably transfected with human TLR7 and an NF-κB-driven luciferase reporter vector (pNifty-Luciferase). As a control assay, normal HEK293 transfected with pNifty-Luc are used. […] The luminescence signal is read on a CLIPR machine with an integration time of 20 seconds per plate.
Kindly note that pEC50 refers to -log10 of the concentration in mol/L and answer with the value alone.

pEC50 for CCOCc1nc2c(N)nc3ccccc3c2n1CCOCCP(=O)(O)O ?
4.18

May I ask what pEC50 has been recorded for CCCCCNc1nc(N)nc(C)c1Cc1ccc(CP(=O)(O)O)cc1 ?
4.32

Suppose we examine the molecule COCCOc1cc2c(nc(O)n2Cc2ccc(CP(=O)(O)O)cc2)c(N)n1 ; what pEC50 value has been reported?
5.19

Give the measured pEC50 of CCCCCNc1nc(N)nc(C)c1Cc1ccc(OCCOCCC(F)(F)P(=O)(O)O)cc1OC .
5.57

Dear colleague, I am looking for the recorded pEC50 of the following molecule: COCCOc1nc(N)c2nc(O)n(Cc3ccc(CP(=O)(O)O)cc3)c2n1
6.39

Entry CCCCCNc1nc(N)nc(C)c1Cc1ccc(CP(=O)(O)O)cc1OC has what pEC50?
5.14

Value lookup for pEC50; key = CCOCc1nc2c(N)nc3ccccc3c2n1CCOCCOCCOCCP(=O)(O)O
4.55

====

Below is a list of entries, each paired with its recorded concentration at 24 h value.
ASSAY: Muscle levels 24 hours after intramuscular injection
Format: in vivo, Balb/C mice
SETUP CONDITIONS: Balb/C, mouse, muscle, intramuscular, 100 μg, compound alone, 100 μg i.m.
# value in µM; strip the unit string

COMPOUND | concentration at 24 h (µM)
CCCCCNc1nc(N)nc(C)c1Cc1ccc(OCCOCCC(F)(F)P(=O)(O)O)cc1OC [Compound 71] | 0
CCCCCCCCCCCC(=O)OC[C@H](CSC[C@H](N)C(=O)NCCOCCOCCOCCP(=O)(O)O)OC(=O)CCCCCCCCCCC [Compound 72] | 0
CCOCc1nc2c(N)nc3ccccc3c2n1CCOCCOCCOCCP(=O)(O)O [Compound 68] | 0
CCCCCCCCCCCC(=O)OC[C@H](CSC[C@H](N)C(=O)NC1(COCCCP(=O)(O)O)CC1)OC(=O)CCCCCCCCCCC [Compound 22] | 0
CCCCCCCCCCCCOC[C@H](CSC[C@H](N)C(=O)NCCOCCOCCOCCP(=O)(O)O)NC(=O)CCCCCCCCCCC [Compound 80] | 5.07

Field request: concentration at 24 h | item: CCCCCCCCCCCCOC[C@H](CSC[C@H](N)C(=O)NCCOCCOCCOCCP(=O)(O)O)OCCCCCCCCCCCC [Compound 74]
27.8

Which concentration at 24 h value belongs to COCCOc1cc2c(nc(O)n2Cc2ccc(CP(=O)(O)O)cc2)c(N)n1 [Compound 67] ?
0

Param item = COCCOc1nc(N)c2nc(O)n(Cc3ccc(CP(=O)(O)O)cc3)c2n1 [Compound 6] ; retrieve measured concentration at 24 h.
0

====

# AUC values compiled below
ASSAY: Systemic serum exposure after intramuscular injection
Format: in vivo, Balb/C mice
SETUP CONDITIONS: Balb/C, mouse, im, TLR2 agonists, +Al—H (adsorbed), 100 μg i.m.
Value expressed in µM·h; do not type the unit.

SMILES CODE | MEASUREMENT
CCCCCCCCCCCCOC[C@H](CSC[C@H](N)C(=O)NCCOCCOCCOCCP(=O)(O)O)NC(=O)CCCCCCCCCCC | 7.26

# input for lookup
Requested read-out: AUC. Entry: CCCCCCCCCCCCOC[C@H](CSC[C@H](N)C(=O)NCCOCCOCCOCCP(=O)(O)O)OCCCCCCCCCCCC
3.39

====

ASSAY: Systemic serum exposure after intramuscular injection
Format: in vivo, Balb/C mice
SETUP CONDITIONS: Balb/C, mouse, intramuscular, 100 μg, compound alone
QUANTITY MEASURED: Cmax (nM)
Form entry: value (nM) — number only.

SMILES CODE | READOUT UNITS | Cmax
CCCCCCCCCCCCOC[C@H](CSC[C@H](N)C(=O)NCCOCCOCCOCCP(=O)(O)O)OCCCCCCCCCCCC | nM | 1940
COCCOc1nc(N)c2nc(O)n(Cc3ccc(CP(=O)(O)O)cc3)c2n1 | nM | 6120

Query: Cmax; subject: CCCCCNc1nc(N)nc(C)c1Cc1ccc(OCCOCCC(F)(F)P(=O)(O)O)cc1OC
2600

Given the entry CCCCCCCCCCCCOC[C@H](CSC[C@H](N)C(=O)NCCOCCOCCOCCP(=O)(O)O)NC(=O)CCCCCCCCCCC , report its measured Cmax.
2820

Which Cmax value is on record for COCCOc1cc2c(nc(O)n2Cc2ccc(CP(=O)(O)O)cc2)c(N)n1 ?
4060

Reported Cmax, compound CCOCc1nc2c(N)nc3ccccc3c2n1CCOCCOCCOCCP(=O)(O)O : ____
2120

====

ASSAY: Systemic serum exposure after intramuscular injection
Assay type: in vivo, Balb/C mice
SETUP CONDITIONS: Balb/C, mouse, im, 100 ug, TLR2 agonists, compound alone, 100 μg i.m.
QUANTITY MEASURED: AUC (µM·h)
Your answer should be a plain number; it is taken to be in µM·h.

MOLECULE | AUC (µM·h)
CCCCCCCCCCCCOC[C@H](CSC[C@H](N)C(=O)NCCOCCOCCOCCP(=O)(O)O)OCCCCCCCCCCCC [Compound 74] | 37.4

Here is another molecule to look at.
State the recorded AUC for this entry: CCCCCCCCCCCCOC[C@H](CSC[C@H](N)C(=O)NCCOCCOCCOCCP(=O)(O)O)NC(=O)CCCCCCCCCCC [Compound 80]
20.7

====

ASSAY: Muscle levels 24 hours after intramuscular injection
Assay type: in vivo, Balb/C mice
SETUP CONDITIONS: Balb/C, mouse, muscle, intramuscular, 100 μg, +Al—H (adsorbed), 100 μg i.m.; read-out: Levels of compound in muscle 24 hours after injection
QUANTITY MEASURED: concentration at 24 h (µM)
Return type: number; implicit unit µM.

SMILES CODE | concentration at 24 h, µM
CCCCCCCCCCCCOC[C@H](CSC[C@H](N)C(=O)NCCOCCOCCOCCP(=O)(O)O)NC(=O)CCCCCCCCCCC | 47.2
COCCOc1nc(N)c2nc(O)n(Cc3ccc(CP(=O)(O)O)cc3)c2n1 | 2.77
CCOCc1nc2c(N)nc3ccccc3c2n1CCOCCOCCOCCP(=O)(O)O | 0.502

// moving on: another record for concentration at 24 h
# lookup: concentration at 24 h of CCCCCCCCCCCCOC[C@H](CSC[C@H](N)C(=O)NCCOCCOCCOCCP(=O)(O)O)OCCCCCCCCCCCC
49
